test system: Stenotrophomonas maltophilia; experiment: Antibacterial activity against Stenotrophomonas maltophilia ATCC 13637; format: functional
Quick rule for you: MIC under 1 µg/mL gets Satisfied, anything else gets Not satisfied.

O=c1[nH]sc2c1c(=O)c1cc(F)c(-c3cccc4ncccc34)cc1n2C1CC1: Not satisfied
O=C(O)c1cn(C2CC2)c2cc(N3CCNCC3)c(F)cc2c1=O: Satisfied
COc1ncc(-c2cc3c(cc2F)c(=O)c2c(=O)[nH]sc2n3C2CC2)c(OC)n1: Not satisfied

Q: Input COc1c(N2C[C@@H]3CCCN[C@@H]3C2)c(F)cc2c(=O)c(C(=O)O)cn(C3CC3)c12 ; condition: MIC strictly below 1 µg/mL. Does it hold?
Ans: Satisfied

----------
target: DNA topoisomerase 4 subunit A (Staphylococcus aureus, UniProt P0C1U9); assay: Inhibitory activity against Staphylococcus aureus ATCC 29213 wild type Topo 4
Sequence (P0C1U9 whole entry): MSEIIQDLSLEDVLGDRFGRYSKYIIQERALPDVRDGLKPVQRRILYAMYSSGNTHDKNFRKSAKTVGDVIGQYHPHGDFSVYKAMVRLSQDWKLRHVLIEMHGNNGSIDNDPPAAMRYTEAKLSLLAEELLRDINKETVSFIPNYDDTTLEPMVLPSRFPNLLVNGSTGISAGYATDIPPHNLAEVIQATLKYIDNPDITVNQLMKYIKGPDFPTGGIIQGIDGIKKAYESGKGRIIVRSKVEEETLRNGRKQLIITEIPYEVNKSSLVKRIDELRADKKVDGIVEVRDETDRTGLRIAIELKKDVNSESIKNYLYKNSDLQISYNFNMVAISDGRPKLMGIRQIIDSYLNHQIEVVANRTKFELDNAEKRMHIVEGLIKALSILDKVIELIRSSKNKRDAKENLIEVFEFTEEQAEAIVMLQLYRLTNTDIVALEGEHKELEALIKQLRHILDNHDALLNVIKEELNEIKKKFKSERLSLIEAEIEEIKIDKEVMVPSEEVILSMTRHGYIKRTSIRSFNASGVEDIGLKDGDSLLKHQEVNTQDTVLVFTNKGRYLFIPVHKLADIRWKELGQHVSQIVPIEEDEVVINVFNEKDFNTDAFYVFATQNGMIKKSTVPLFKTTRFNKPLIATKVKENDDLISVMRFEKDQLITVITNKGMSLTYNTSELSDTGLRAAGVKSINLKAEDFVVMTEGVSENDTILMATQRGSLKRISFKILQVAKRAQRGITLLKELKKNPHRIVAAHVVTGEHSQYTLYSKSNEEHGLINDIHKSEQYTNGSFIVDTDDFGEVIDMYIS
Recorded pIC50 values for a group of compounds are listed next.
Answer as the number alone; pIC50 is minus log10 of concentration in mol/L.

Guide cases for pIC50, answers given:
Cc1ccc(-c2cc3c(cc2F)c(=O)c2c(=O)[nH]sc2n3C2CC2)c(C)n1: 5.10
COc1ccc(-c2cc3c(cc2F)c(=O)c2c(=O)[nH]sc2n3C2CC2)cn1: 4.59
COc1cncc(-c2cc3c(cc2F)c(=O)c2c(=O)[nH]sc2n3C2CC2)c1: 4.68
O=c1[nH]sc2c1c(=O)c1cc(F)c(-c3cccnc3F)cc1n2C1CC1: 5.62

Q: So what does the record say about pIC50 for O=c1[nH]sc2c1c(=O)c1cc(F)c(-c3cnc4ccccc4c3)cc1n2C1CC1 ?
Ans: 4.30

Q: So what does the record say about pIC50 for O=c1[nH]sc2c1c(=O)c1cc(F)c(-c3ccccc3)cc1n2C1CC1 ?
Ans: 5.20

Q: So what does the record say about pIC50 for O=c1[nH]sc2c1c(=O)c1cc(F)c(-c3ccc(F)nc3)cc1n2C1CC1 ?
Ans: 4.92

Q: So what does the record say about pIC50 for O=c1[nH]sc2c1c(=O)c1cc(F)c(-c3cccnc3)cc1n2C1CC1 ?
Ans: 6.30

Q: So what does the record say about pIC50 for Cc1cc(-c2cc3c(cc2F)c(=O)c2c(=O)[nH]sc2n3C2CC2)ccn1 ?
Ans: 4.59

Q: So what does the record say about pIC50 for Cc1ccnc(-c2cc3c(cc2F)c(=O)c2c(=O)[nH]sc2n3C2CC2)c1 ?
Ans: 4.80

----------
system: Klebsiella pneumoniae; test: Antibacterial activity against Klebsiella pneumoniae ATCC 13883; format: functional
Recorded MIC values for a group of compounds are listed next.
The reply should be a number in mg/L, with the unit left off.

Guide cases for MIC, answers given:
O=c1[nH]sc2c1c(=O)c1cc(F)c(-c3ccc(F)nc3)cc1n2C1CC1: 0.125
O=c1[nH]sc2c1c(=O)c1cc(F)c(-c3cccc4ncccc34)cc1n2C1CC1: 0.5
O=C(O)c1cn(C2CC2)c2cc(N3CCNCC3)c(F)cc2c1=O [CIPROFLOXACIN]: 0.033
COc1c(N2C[C@@H]3CCCN[C@@H]3C2)c(F)cc2c(=O)c(C(=O)O)cn(C3CC3)c12 [MOXIFLOXACIN]: 0.031
COc1ncc(-c2cc3c(cc2F)c(=O)c2c(=O)[nH]sc2n3C2CC2)c(OC)n1: 0.5

Q: So what does the record say about MIC for Cc1cc(-c2cc3c(cc2F)c(=O)c2c(=O)[nH]sc2n3C2CC2)ccn1 ?
Ans: 0.125

----------
tested on: Streptococcus pyogenes; assay: Antibacterial activity against Streptococcus pyogenes ATCC 19615; format: functional
Quick rule for you: MIC under 0.06 µg/mL gets YES, anything else gets NO.

Known results for molecules:
Cc1cc(-c2cc3c(cc2F)c(=O)c2c(=O)[nH]sc2n3C2CC2)ccn1: YES
O=C(O)c1cn(C2CC2)c2cc(N3CCNCC3)c(F)cc2c1=O: NO
COc1ncc(-c2cc3c(cc2F)c(=O)c2c(=O)[nH]sc2n3C2CC2)c(OC)n1: NO

API: the following record is the query input.
Q: Input O=c1[nH]sc2c1c(=O)c1cc(F)c(-c3cccc4ncccc34)cc1n2C1CC1 ; condition: MIC strictly below 0.06 µg/mL. Does it hold?
Ans: NO

----------
biological target: DNA topoisomerase 4 subunit A (Staphylococcus aureus); assay: Inhibitory activity against Staphylococcus aureus ATCC 29213 wild type Topo 4
Quick rule for you: IC50 under 10 µM gets criterion met, anything else gets criterion not met.

O=c1[nH]sc2c1c(=O)c1cc(F)c(-c3ccnc(CO)c3)cc1n2C1CC1: criterion met

API: the following record is the query input.
Q: Input COc1ccc(-c2cc3c(cc2F)c(=O)c2c(=O)[nH]sc2n3C2CC2)c(OC)n1 ; condition: IC50 strictly below 10 µM. Does it hold?
Ans: criterion not met

----------
molecular target: DNA topoisomerase 4 subunit A (Staphylococcus aureus, UniProt P0C1U9); test: Inhibitory activity against Staphylococcus aureus ATCC 29213 wild type Topo 4
Recorded metric: log10 IC50 (log10 of the value in µM)
# values: log10(IC50), units µM

O=c1[nH]sc2c1c(=O)c1cc(F)c(-c3cncnc3)cc1n2C1CC1: 0.52
O=c1[nH]sc2c1c(=O)c1cc(F)c(-c3cncc(C4CCCCN4)c3)cc1n2C1CC1 (configuration not stated): 0.70
Cc1ccc(-c2cc3c(cc2F)c(=O)c2c(=O)[nH]sc2n3C2CC2)cn1: 0.93

Q: So what does the record say about log10 IC50 for O=c1[nH]sc2c1c(=O)c1cc(F)c(-c3ccc(-n4cccc4)nc3)cc1n2C1CC1 ?
Ans: 1.26

----------
biological target: DNA topoisomerase 4 subunit A (Staphylococcus aureus); test: Inhibitory activity against Staphylococcus aureus ATCC 29213 wild type Topo 4
Recorded metric: IC50 (µM)
The reply should be a number in µM, with the unit left off.

Guide cases for IC50, answers given:
Cc1ccc(-c2cc3c(cc2F)c(=O)c2c(=O)[nH]sc2n3C2CC2)nc1: 14
Cn1ccc2cc(-c3cc4c(cc3F)c(=O)c3c(=O)[nH]sc3n4C3CC3)ccc21: 3.6
O=c1[nH]sc2c1c(=O)c1cc(F)c(-c3cccc4cnccc34)cc1n2C1CC1: 23
O=c1[nH]sc2c1c(=O)c1cc(F)c(-c3cccc4ncccc34)cc1n2C1CC1: 33
O=c1[nH]sc2c1c(=O)c1cc(F)c(-c3ccc4cnccc4c3)cc1n2C1CC1: 3.6
COc1c(N2C[C@@H]3CCCN[C@@H]3C2)c(F)cc2c(=O)c(C(=O)O)cn(C3CC3)c12 [MOXIFLOXACIN]: 0.8
Cc1ncccc1-c1cc2c(cc1F)c(=O)c1c(=O)[nH]sc1n2C1CC1: 3.5
O=c1[nH]sc2c1c(=O)c1cc(F)c(-c3ccncc3)cc1n2C1CC1: 2.2

Next molecule, please.
Q: Which measured IC50 belongs to NCc1ccc(-c2cc3c(cc2F)c(=O)c2c(=O)[nH]sc2n3C2CC2)cn1 , tested on DNA topoisomerase 4 subunit A (Staphylococcus aureus)?
Ans: 0.7

----------
target: DNA topoisomerase 4 subunit A (Staphylococcus aureus, UniProt P0C1U9); assay: Inhibitory activity against Staphylococcus aureus ATCC 29213 wild type Topo 4
Recorded pIC50 values for a group of compounds are listed next.
Answer as the number alone; pIC50 is minus log10 of concentration in mol/L.

Q: So what does the record say about pIC50 for COc1ccncc1-c1cc2c(cc1F)c(=O)c1c(=O)[nH]sc1n2C1CC1 ?
Ans: 5.00

Q: So what does the record say about pIC50 for O=c1[nH]sc2c1c(=O)c1cc(F)c(-c3cnccn3)cc1n2C1CC1 ?
Ans: 4.19

Q: So what does the record say about pIC50 for Cc1cc(-c2cc3c(cc2F)c(=O)c2c(=O)[nH]sc2n3C2CC2)cc(C)n1 ?
Ans: 4.32

Q: So what does the record say about pIC50 for O=c1[nH]sc2c1c(=O)c1cc(F)c(-c3ccc4ncccc4c3)cc1n2C1CC1 ?
Ans: 5.49

Q: So what does the record say about pIC50 for O=c1[nH]sc2c1c(=O)c1cc(F)c(-c3ccc[nH]3)cc1n2C1CC1 ?
Ans: 5.00

Q: So what does the record say about pIC50 for O=c1[nH]sc2c1c(=O)c1cc(F)c(-c3ccnc(F)c3)cc1n2C1CC1 ?
Ans: 4.72

Q: So what does the record say about pIC50 for COc1ncc(-c2cc3c(cc2F)c(=O)c2c(=O)[nH]sc2n3C2CC2)cn1 ?
Ans: 5.48

Q: So what does the record say about pIC50 for O=c1[nH]sc2c1c(=O)c1cc(F)c(-c3cc4ccccc4[nH]3)cc1n2C1CC1 ?
Ans: 5.48

Q: So what does the record say about pIC50 for O=c1[nH]sc2c1c(=O)c1cc(F)c(-c3cncc(C4CCCN4)c3)cc1n2C1CC1 (centres undefined) ?
Ans: 5.96

Q: So what does the record say about pIC50 for O=c1[nH]sc2c1c(=O)c1cc(F)c(-c3ccc4cncnc4c3)cc1n2C1CC1 ?
Ans: 4.54

Q: So what does the record say about pIC50 for COc1ncc(-c2cc3c(cc2F)c(=O)c2c(=O)[nH]sc2n3C2CC2)c(OC)n1 ?
Ans: 4.38
